This collection of values is drawn from patent US20240408169A1.

assay_system: CyclinE1/CDK2 (Homo sapiens)
Construct: purchased Eurofins, discovery 14-475
experiment_notes: Fluorescence Polarization (FP) competitive binding assay, Cyclin E1/Cdk2;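 also: readings taken after two-hour equilibration at room temperature in HEPES buffer with NaCl, DTT, NP-40 and BSA, IC50 fitted from eight-concentration serial dilution series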
condition_details: 10 nM Cyclin E1/Cdk2, 2 nM FAM probe; average of 2-3 independent experiments; read-out: Cyclin E FP IC50
*1 amine or outer side, *2 acyl side, *3 side chain or, on linkers, in order; H or OH if unused. Where a SMILES comes first, the peptide text is derived from it. Bridges are numbered along the chain shown (N, C = ends). [ ]: non-standard residue; d: D form. The star is where a group is joined. X71 = CN([C@@H](Cc1cc(Cl)ccc1-c1ccc(N2CCOCC2)c(F)c1)C(=O)[*:2])[*:1]; NMehhhLys(Me) = CN([C@@H](CCCCCCCN(C)[*:3])C(=O)[*:2])[*:1]; cBuCO(3,3-F2-1-CF3) = O=C(C1(C(F)(F)F)CC(F)(F)C1)*; Pro(trans-4-F) = O=C(O)[C@@H]1C[C@@H](F)CN1; Gly(cPr) = N[C@H](C(=O)O)C1CC1
For each entry below, report its IC50 value.
Answer with a number only, understood to be in nM.

*Q* Look up IC50 for this compound: CC(C)C[C@@H]1NC(=O)[C@@H](N(C)C(=O)[C@@H](NC(=O)[C@@H]2C[C@@H](F)CN2C(=O)C2(C(F)(F)F)CC(F)(F)C2)C2CC2)CCCCCCCN(C)C(=O)[C@H](Cc2cc(Cl)ccc2-c2ccc(N3CCOCC3)c(F)c2)N(C)C1=O [Example 348] ({cBuCO(3,3-F2-1-CF3)}-[Pro(trans-4-F)][Gly(cPr)][NMehhhLys(Me)]L[X71]; lactam 3-C)
*A* 880

*Q* Look up IC50 for this compound: CC(=O)N1C2CCC1CC(c1ccc(F)cc1C[C@H]1C(=O)N(C)CCCCCCC[C@H](N(C)C(=O)[C@@H](NC(=O)[C@@H]3C[C@@H](F)CN3C(=O)C3(C(F)(F)F)CC(F)(F)C3)C3CC3)C(=O)N[C@@H](CC(C)C)C(=O)N1C)C2 (single isomer, unassigned) [Example 59-P2]
*A* 870
